Reference source for all entries: patent US20090030039A1

# test-target: human CXCR3 (Homo sapiens)
# Construct: expressed in transfected cells; host or cells: CHO cells (membrane preparation)
# experiment-description: [35S]GTPγS exchange assay, CXCR3 receptor inhibition (hI-TAC-induced GTPγS-binding)
# Assay type: biochemical
# test-settings: -log IC50 (molar) inhibiting 50% of specific I-TAC-induced GTPγS-binding; membranes of human CXCR3-transfected CHO cells; read-out: pIC50 (converted)
Listed below: IC50 values for each entry.
Write the value in nM as a bare number.

compound: CC(=O)N1CC(c2ccccc2)(C2CCN(Cc3ccc(Br)cc3)CC2)CCC1=O (centres unmarked)
test-target: human CXCR3 (Homo sapiens)
quantity-unit: nM
IC50: 1260
//
compound: CC(c1ccc(Br)cc1)N1CCC(C2(c3ccccc3)CCCNC2=O)CC1 (centres unmarked)
test-target: human CXCR3 (Homo sapiens)
quantity-unit: nM
IC50: 794
//
compound: Cc1cccc(C2(C3CCN(Cc4ccc(F)c(F)c4F)CC3)CCC(=O)NC2=O)c1 (centres unmarked)
test-target: human CXCR3 (Homo sapiens)
quantity-unit: nM
IC50: 1260
//
compound: O=C1CCC(c2ccccc2)(N2CCN(Cc3ccc(Cl)c(F)c3)CC2)C(=O)N1 (centres unmarked)
test-target: human CXCR3 (Homo sapiens)
quantity-unit: nM
IC50: 2510
//
compound: O=C1CCC(c2ccccc2)(C2CCN(Cc3cc(F)c(F)cc3F)CC2)C(=O)N1 (centres unmarked)
test-target: human CXCR3 (Homo sapiens)
quantity-unit: nM
IC50: 2510
//
compound: O=C1CCC(c2cccc(C(F)(F)F)c2)(C2CCN(Cc3ccc(Br)cc3F)CC2)C(=O)N1 (centres unmarked)
test-target: human CXCR3 (Homo sapiens)
quantity-unit: nM
IC50: 3160
//
compound: CC(c1ccc(Br)cc1)N1CCC(C2(c3cccc(Cl)c3)CCC(=O)NC2=O)CC1 (centres unmarked)
test-target: human CXCR3 (Homo sapiens)
quantity-unit: nM
IC50: 1000

Next compound, IC50 to be filled in.
[Q] Annotate the compound CSc1ccc(CN2CCC(C3(c4ccccc4)CCC(=O)NC3=O)CC2)cc1 (centres unmarked) with its measured IC50.
[A] 5010

---

Listed below: IC50 values for each entry.
# test-target: human CXCR3 (Homo sapiens)
# Construct: expressed in transfected cells; host or cells: CHO cells (membrane preparation)
# experiment-description: [35S]GTPγS exchange assay, CXCR3 receptor inhibition (hI-TAC-induced GTPγS-binding)
# Type: biochemical
# test-settings: -log IC50 (molar) inhibiting 50% of specific I-TAC-induced GTPγS-binding; membranes of human CXCR3-transfected CHO cells; read-out: pIC50 (converted)
Write the value in nM as a bare number.

compound: O=C1CCC(c2cccnc2)(C2CCN(Cc3ccc(OC(F)(F)F)cc3)CC2)C(=O)N1 (centres unmarked)
IC50 (nM): 2510
--
compound: O=C1CCC(c2ccc(F)cc2)(C2CCN(Cc3ccc(OC(F)(F)F)cc3)CC2)C(=O)N1 (centres unmarked)
IC50 (nM): 5010
--
compound: COC(=O)c1ccc(CN2CCC(C3(c4ccccc4)CCC(=O)NC3=O)CC2)cc1 (centres unmarked)
IC50 (nM): 1260
--
compound: O=C1CCC(c2cccc(Cl)c2)(C2CCN(Cc3ccc(Cl)c(Cl)c3)CC2)C(=O)N1 (centres unmarked)
IC50 (nM): 3980
--
compound: O=C1CCC(c2ccc(F)cc2)(C2CCN(Cc3ccc(Cl)cc3Cl)CC2)CN1 (centres unmarked)
IC50 (nM): 1580

[Q] Annotate the compound O=C1CCC(c2ccccc2)(C2CCN(Cc3ccc(F)c(Cl)c3)CC2)C(=O)N1 (centres unmarked) with its measured IC50.
[A] 3160

[Q] Annotate the compound CC(c1ccc(Br)cc1)N1CCC(C2(c3ccccc3)CCC(=O)NC2=O)CC1 (single isomer, unassigned) [Compound 17] with its measured IC50.
[A] 2000

[Q] Annotate the compound COc1ccc(CN2CCC(C3(c4ccccc4)CCC(=O)NC3=O)CC2)c(OC)c1 (centres unmarked) with its measured IC50.
[A] 7940

---

# test-target: human CXCR3 (Homo sapiens)
# Construct: expressed in transfected cells; host or cells: CHO cells (membrane preparation)
# Sequence (P49682 1-368): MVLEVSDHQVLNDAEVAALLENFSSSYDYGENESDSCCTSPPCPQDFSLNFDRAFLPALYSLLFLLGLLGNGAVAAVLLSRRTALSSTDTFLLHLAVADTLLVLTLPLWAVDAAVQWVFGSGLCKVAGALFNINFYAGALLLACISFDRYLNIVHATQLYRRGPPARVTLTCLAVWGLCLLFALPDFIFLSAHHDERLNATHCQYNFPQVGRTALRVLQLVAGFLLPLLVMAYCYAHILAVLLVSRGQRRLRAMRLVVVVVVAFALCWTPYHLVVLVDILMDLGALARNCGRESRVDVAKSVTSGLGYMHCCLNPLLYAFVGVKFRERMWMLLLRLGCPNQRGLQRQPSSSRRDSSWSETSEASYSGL
# experiment-description: [35S]GTPγS exchange assay, CXCR3 receptor inhibition (hI-TAC-induced GTPγS-binding)
# Assay type: biochemical
# test-settings: -log IC50 (molar) inhibiting 50% of specific I-TAC-induced GTPγS-binding; membranes of human CXCR3-transfected CHO cells; read-out: pIC50 (converted)
# Method: CXCR3 Receptor Inhibition was Examined in a [^35S]GTPγS Exchange Assay The exchange of guanosine 5′-[^35S]triphosphate was measured on membranes of human CXCR3-transfected CHO cells. […] Flashplate bound radioactivity was determined by liquid scintillation counting. Basal GTPγS-binding was measured in 8 wells with membranes incubated in the same volume with 1% DMSO, without I-TAC. Maximal GTPγS-binding was measured in 8 wells with membranes incubated with 1% DMSO and 3 nM I-TAC. […]
experimental-endpoint: IC50 (nM)
Write the value in nM as a bare number.

Worked cases, answers included:
compound: O=C1CCC(c2ccc(F)cc2)(C2CCN(Cc3ccc(Cl)cc3Cl)CC2)C(=O)N1 (stereo not shown) [Compound 75]
IC50 / nM: 2510
//
compound: O=C1CCC(c2ccc(F)cc2)(C2CCN(Cc3ccc(Br)cc3F)CC2)CN1 (stereo not shown) [Compound 15]
IC50 / nM: 398
//
compound: O=C1CCC(c2ccncc2)(C2CCN(Cc3ccc(Cl)c(Cl)c3)CC2)C(=O)N1 (stereo not shown) [Compound 169]
IC50 / nM: 1000

[Q] Annotate the compound O=C1CCC(c2ccccc2)(C2CCN(Cc3ccc(Cl)cc3)CC2)C(=O)N1 (stereo not shown) [Compound 62] with its measured IC50.
[A] 794

---

Listed below: log10 IC50 values for each entry.
# test-target: human CXCR3 (Homo sapiens)
# Construct: expressed in transfected cells; host or cells: CHO cells (membrane preparation)
# experiment-description: [35S]GTPγS exchange assay, CXCR3 receptor inhibition (hI-TAC-induced GTPγS-binding)
# Type: biochemical
# test-settings: -log IC50 (molar) inhibiting 50% of specific I-TAC-induced GTPγS-binding; membranes of human CXCR3-transfected CHO cells; read-out: pIC50 (converted)
A difference of one corresponds to tenfold IC50; all values are log10 with IC50 in µM.

compound: O=C1CCC(c2ccc(F)cc2)(C2CCN(Cc3ccc(Br)cc3)CC2)CN1 (stereo not shown) [Compound 143]
log10 IC50: -0.20
//
compound: O=C1CCC(c2ccccc2)(C2CCN(Cc3ccc(Cl)cc3)CC2)C(=O)N1 (stereo not shown) [Compound 61]
log10 IC50: 0.00
//
compound: Cc1cccc(C2(C3CCN(Cc4ccc(Cl)cc4Cl)CC3)CCC(=O)NC2=O)c1 (stereo not shown) [Compound 72]
log10 IC50: 0.80
//
compound: O=C1CCC(c2ccc(F)cc2)(C2CCN(Cc3ccc(F)c(Cl)c3)CC2)CN1 (stereo not shown) [Compound 134]
log10 IC50: 0.60
//
compound: Cc1cc(CN2CCC(C3(c4ccc(F)cc4)CCC(=O)NC3)CC2)ccc1Br (stereo not shown) [Compound 145]
log10 IC50: -0.10
//
compound: O=C1CCC(c2ccccc2)(N2CCN(Cc3ccc(Br)cc3)CC2)C(=O)N1 (stereo not shown) [Compound 7]
log10 IC50: -0.60
//
compound: O=C1CCC(c2ccccc2)(C2CCN(Cc3ccc(C(F)(F)F)cc3)CC2)C(=O)N1 (stereo not shown) [Compound 102]
log10 IC50: 0.60
//
compound: O=C1CCC(c2ccc(F)cc2)(C2CCN(Cc3ccc(F)c(Cl)c3)CC2)C(=O)N1 (stereo not shown) [Compound 56]
log10 IC50: 0.70

[Q] Look up and report log10 IC50, with human CXCR3 (Homo sapiens) as system, for O=C1CCC(c2ccccc2)(C2CCN(Cc3ccc(Cl)cc3)CC2)CN1 (stereo not shown) [Compound 135]
[A] 0.00

[Q] Look up and report log10 IC50, with human CXCR3 (Homo sapiens) as system, for O=C1CCC(c2ccc(F)cc2F)(C2CCN(Cc3ccc(Cl)c(Cl)c3)CC2)C(=O)N1 (stereo not shown) [Compound 201]
[A] -0.40

[Q] Look up and report log10 IC50, with human CXCR3 (Homo sapiens) as system, for COc1cccc(C2(C3CCN(Cc4ccc(F)c(F)c4F)CC3)CCC(=O)NC2=O)c1 (stereo not shown) [Compound 53]
[A] 0.30

[Q] Look up and report log10 IC50, with human CXCR3 (Homo sapiens) as system, for O=C1CCC(c2ccc(F)cc2)(C2CCN(Cc3ccc4nonc4c3)CC2)C(=O)N1 (stereo not shown) [Compound 163]
[A] 0.60
